Molecular target: T1, PUF4 RNA-binding domain (Saccharomyces cerevisiae, UniProt P25339 537-888)
T1 sequence: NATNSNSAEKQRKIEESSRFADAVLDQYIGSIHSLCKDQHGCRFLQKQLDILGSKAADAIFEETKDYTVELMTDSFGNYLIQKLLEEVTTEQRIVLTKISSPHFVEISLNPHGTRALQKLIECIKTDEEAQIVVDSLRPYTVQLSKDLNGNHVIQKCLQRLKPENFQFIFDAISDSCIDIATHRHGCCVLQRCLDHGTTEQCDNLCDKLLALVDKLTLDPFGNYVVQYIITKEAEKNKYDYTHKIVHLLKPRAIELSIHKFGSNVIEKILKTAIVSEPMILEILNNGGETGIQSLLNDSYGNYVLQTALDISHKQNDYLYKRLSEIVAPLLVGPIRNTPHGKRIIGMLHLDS
Experiment: Mg; RNA-MaP; 20 mM Na-HEPES pH 7.4, 30 mM KOAc, 0.75 mM MgCl2, 0.1% Tween-20, 5% glycerol, 0.1 mg/mL BSA, 2 mM DTT; 25 C; 0.0125-409.6 nM protein
Conditions: tags: N-His6-TEV cleaved; C-SNAP kept, Cy3B-labelled; label: tethered on chip by stalled RNA polymerase
pKd: −log10 of the molar value.
Measured pKd of individual entries

>  <binder>
Id_ii_S4_P3E.3_K3.2_C3.2_[T-1A]_H3.2_A3.1_F3.1_T3.2_[T9G]_[A10C] (ssRNA) RNA: UUUGACAACUGAUCGUUCUUUCUCAUAUAUAUAGCUUCUUUCUCGAUCAGUUGUCUUU

>  <operator>
=

>  <pKd>
6.62

$$$$
>  <binder>
UCUCUUAAUAUAUUAUUACAUCUCUU (ssRNA) [Id_ii_S1_P5E.3_K5.2_C5.2_[C-2A]_[T-1A]_H5.2_A5.1_F5.1_T5.2_[T11C]]

>  <operator>
=

>  <pKd>
6.22

$$$$
>  <binder>
Ic_S4_P4E.1_K4.1_C4.1_H4.1_A4.1_[T5C]_[T7C]_F4.1_[T8A]_T4.1 (ssRNA) RNA: UUUGACAACUGAUCGUUCUUUCUUGUACACAAUUCUUUCUCGAUCAGUUGUCUUU

>  <operator>
=

>  <pKd>
7.77

$$$$
>  <binder>
ACAAACAUCACACUAUAUAACAAAC (ssRNA) [Id_i_S3_P3E.7_K3.3_C3.3_[T-3A]_[C-2T]_[T-1C]_H3.3_A3.1_F3.1_T3.2]

>  <operator>
=

>  <pKd>
5.65

$$$$
>  <binder>
ACAAACGCACACUUAUUAUAACAAAC (ssRNA) [Id_ii_S3_P5E.4_K5.3_C5.2_[C-2G]_[T-1C]_H5.3_A5.1_F5.1_T5.2]

>  <operator>
<

>  <pKd>
5.64

$$$$
>  <binder>
Ie_S2_P5E.1_K5.1_C5.1_H5.1_A5.1_F5.1_[+8CCCTT]_T5.1 (ssRNA) RNA: UUUGAUUAAUAUGAUAUCGUUCUUUCUUGUAUUAUCCCUUUAUUCUUUCUCGAUAUCAUAUUAAUCUUU

>  <operator>
=

>  <pKd>
7.82

$$$$
>  <binder>
UCUCUUUGUAUAUAUAUCUCUCUU (ssRNA) [Id_ii_S1_P3E.3_K3.2_C3.2_[C-2T]_[T-1G]_H3.2_A3.1_F3.1_T3.2_[A10C]]

>  <operator>
=

>  <pKd>
8.47

$$$$
>  <binder>
UCUCUUUUUAUAAAUCUCUU (ssRNA) [Ib_S1_P3E.1_K3.1_C3.1_H3.1_[G2T]_A3.1_F3.1_[T7A]_T3.1]

>  <operator>
<

>  <pKd>
5.64

$$$$
>  <binder>
UCUCUUCUUGUUUCCAUAUAUAUCUCUU (ssRNA) [Ie_S1_P3E.2_K3.1_C3.2_H3.1_[+3TTCC]_A3.1_F3.1_T3.2]

>  <operator>
=

>  <pKd>
7.16

$$$$
>  <binder>
Ic_S4_P5E.1_K5.1_C5.1_H5.1_A5.1_[T5C]_F5.1_[T8C]_[T9G]_[A10C]_T5.1 (ssRNA) RNA: UUUGACAACUGAUCGUUCUUUCUUGUACUACGCUUCUUUCUCGAUCAGUUGUCUUU

>  <operator>
=

>  <pKd>
6.30

$$$$
>  <binder>
Ia_S4_P3E.1_K3.1_C3.1_H3.1_[T1A]_A3.1_F3.1_T3.1 (ssRNA) RNA: UUUGACAACUGAUCGUUCUUUCUAGUAUAUAUUCUUUCUCGAUCAGUUGUCUUU

>  <operator>
=

>  <pKd>
6.09

$$$$
>  <binder>
Ic_S2_P4E.1_K4.1_C4.1_H4.1_A4.1_[T5G]_[A6T]_F4.1_[T8A]_[A9T]_T4.1 (ssRNA) RNA: UUUGAUUAAUAUGAUAUCGUUCUUUCUUGUAGUUAUUUCUUUCUCGAUAUCAUAUUAAUCUUU

>  <operator>
=

>  <pKd>
6.83

$$$$
>  <binder>
Id_iii_S2_P5E.8_K5.4_C5.3_[T-3C]_H5.1_A5.2_F5.1_T5.2 (ssRNA) RNA: UUUGAUUAAUAUGAUAUCGUUCUUUCUCCUUGUAAUAUUAUAUUCUUUCUCGAUAUCAUAUUAAUCUUU

>  <operator>
=

>  <pKd>
8.24

$$$$
>  <binder>
Ic_S2_P4E.1_K4.1_C4.1_H4.1_A4.1_[T5A]_[A6T]_[T7A]_F4.1_[T8C]_T4.1 (ssRNA) RNA: UUUGAUUAAUAUGAUAUCGUUCUUUCUUGUAAUACAUUCUUUCUCGAUAUCAUAUUAAUCUUU

>  <operator>
=

>  <pKd>
6.25

$$$$
>  <binder>
Ib_S4_P5E.1_K5.1_C5.1_H5.1_[T1C]_[G2A]_A5.1_F5.1_T5.1 (ssRNA) RNA: UUUGACAACUGAUCGUUCUUUCUCAUAUUAUUAUUCUUUCUCGAUCAGUUGUCUUU

>  <operator>
=

>  <pKd>
5.78

$$$$
>  <binder>
Ib_S2_P5E.1_K5.1_C5.1_H5.1_A5.1_[T5A]_F5.1_[A10T]_T5.1 (ssRNA) RNA: UUUGAUUAAUAUGAUAUCGUUCUUUCUUGUAAUAUUUUUCUUUCUCGAUAUCAUAUUAAUCUUU

>  <operator>
=

>  <pKd>
8.00

$$$$
>  <binder>
Id_ii_S2_P4E.2_K4.1_C4.2_[C-2A]_[T-1C]_H4.1_A4.1_F4.1_T4.2_[G10A]_[T11C] (ssRNA) RNA: UUUGAUUAAUAUGAUAUCGUUCUUUCUACUGUAUAUUAACUUCUUUCUCGAUAUCAUAUUAAUCUUU

>  <operator>
=

>  <pKd>
9.17

$$$$
>  <binder>
Id_iii_S2_P4E.8_K4.4_C4.3_[T-1A]_H4.1_A4.2_F4.1_T4.2 (ssRNA) RNA: UUUGAUUAAUAUGAUAUCGUUCUUUCUUCAUGUAUUUUAGUUUCUUUCUCGAUAUCAUAUUAAUCUUU

>  <operator>
=

>  <pKd>
8.89

$$$$
>  <binder>
Id_ii_S2_P4E.2_K4.1_C4.2_[T-1G]_H4.1_A4.1_F4.1_T4.2_[G10A]_[T11G] (ssRNA) RNA: UUUGAUUAAUAUGAUAUCGUUCUUUCUCGUGUAUAUUAAGUUCUUUCUCGAUAUCAUAUUAAUCUUU

>  <operator>
=

>  <pKd>
8.77

$$$$
>  <binder>
UCUCUUUGUAUCCUUAUUAUCUCUU (ssRNA) [Ie_S1_P5E.1_K5.1_C5.1_H5.1_[+4TCC]_A5.1_F5.1_T5.1]

>  <operator>
=

>  <pKd>
7.96

$$$$
>  <binder>
UCUCUUUGUGUUUUUAUCUCUU (ssRNA) [Ib_S1_P5E.1_K5.1_C5.1_H5.1_[A4G]_A5.1_[A7T]_F5.1_T5.1]

>  <operator>
=

>  <pKd>
7.57

$$$$
>  <binder>
UCUCUUUGCAUAGUAUCUCUU (ssRNA) [Ib_S1_P4E.1_K4.1_C4.1_H4.1_[T3C]_A4.1_[T7G]_F4.1_T4.1]

>  <operator>
=

>  <pKd>
6.19

$$$$
>  <binder>
Ic_S4_P3E.1_K3.1_C3.1_H3.1_A3.1_[T5A]_[A6C]_F3.1_[T7A]_[A8T]_T3.1 (ssRNA) RNA: UUUGACAACUGAUCGUUCUUUCUUGUAACAUUUCUUUCUCGAUCAGUUGUCUUU

>  <operator>
=

>  <pKd>
7.82

$$$$
